- System: HUVEC
- TEST_DESCRIPTION: HUVEC assay, endothelial cell proliferation
- Format: cell-based
- CONDITION_DETAILS: Homo sapiens, basal, read-out: IC50, basal endothelial cell proliferation
pIC50: −log10 of the molar value.

COMPOUND: COc1cc2c(Oc3ccc4[nH]c(C)cc4c3F)ncnc2cc1OCCCN1CCCC1 [AZD2171]
pIC50: < 6.30
